All figures here come from patent US20110097274A1.

- Test system: SERT
- Assay explanation: Baboon PET imaging: brain uptake, kinetic analysis and SERT parameters
- Type: in vivo
- Condition set: last scan 90 minutes; baboons, mean ± SD of four experiments
- Procedure: PET imaging protocol: PET experiments (n=20) were performed at Columbia University. Two adult male baboons (baboon A and B) were studied twice with each of the 5 radioligands (4 experiments per radioligand). […] Experiments were performed according to protocols approved by the Columbia-Presbyterian Medical Center Institutional Animal Care and Use Committee. […] Vital signs were monitored every 10 minutes and the temperature was kept constant at 37° C. with heated water blankets. […]
Below, each entry is listed alongside its reported Regional activity wash-out: % decrease from peak to last scan, Striatum.
// units = %; emit number, no label

CN(C)Cc1ccccc1Sc1ccc(I)cc1N [[^11C]ADAM]    23
CN(C)Cc1ccccc1Sc1ccc(Br)cc1N [[^11C]DAPA]    8
CN([11CH3])Cc1ccccc1Sc1ccc(CF)cc1N [[^11C]AFM]    29
[11CH3]Sc1ccc([C@H]2CN3CCC[C@H]3c3ccccc32)cc1 [[^11C]McN 5652]    18

Here is the next item to consider.
Asked: I have this compound here, CN(C)Cc1ccccc1Sc1ccc(C#N)cc1N [[^11C]DASB] , and I need its recorded Regional activity wash-out: % decrease from peak to last scan, Striatum.
Given back: 49

* * *

- Test system: SERT
- Assay explanation: Baboon PET imaging: brain uptake, kinetic analysis and SERT parameters
- Type: in vivo
- Condition set: one-tissue compartment model; baboons, mean ± SD of four experiments
Collected K1 Cerebellum values appear next to each entry.
Give a bare numeral; the unit mL/g/min is implied.

Examples with their reported K1 Cerebellum follow.
CN([11CH3])Cc1ccccc1Sc1ccc(CF)cc1N [[^11C]AFM]    1.52
[11CH3]Sc1ccc([C@H]2CN3CCC[C@H]3c3ccccc32)cc1 [[^11C]McN 5652]    1.05
CN(C)Cc1ccccc1Sc1ccc(Br)cc1N [[^11C]DAPA]    0.99

Asked: Recorded K1 Cerebellum for CN(C)Cc1ccccc1Sc1ccc(I)cc1N [[^11C]ADAM] , please?
Given back: 1.23

Asked: Given CN(C)Cc1ccccc1Sc1ccc(C#N)cc1N [[^11C]DASB] , state its recorded K1 Cerebellum.
Given back: 1.36

* * *

- Tested on: SERT
- Assay explanation: Baboon PET imaging: brain uptake, kinetic analysis and SERT parameters
- Type: in vivo
- Condition set: BP = VT ROI − VT CER; baboons, mean ± SD of four experiments
Rule: Binding potential Hippocampus below 10 mL/g gives Yes, anything at or above gives No.

Answered cases to consult:
[11CH3]Sc1ccc([C@H]2CN3CCC[C@H]3c3ccccc32)cc1 [[^11C]McN 5652]    Yes
CN(C)Cc1ccccc1Sc1ccc(Br)cc1N [[^11C]DAPA]    No
CN(C)Cc1ccccc1Sc1ccc(I)cc1N [[^11C]ADAM]    No

Consider the additional compound presented here.
Asked: Item CN([11CH3])Cc1ccccc1Sc1ccc(CF)cc1N [[^11C]AFM] : Binding potential Hippocampus beneath 10 mL/g, strictly?
Given back: No

* * *

- Assay explanation: Biodistribution of labeled radioligands in male Sprague-Dawley rats
- Format: in vivo
- Condition set: 30 min post-injection; mean ± SD, n = 3
Rule: measured % ID/g Blood below 0.1 % ID/g gets Met; anything equal to or greater than 0.1 % ID/g gets Not met.

Solved cases (5 shown):
Cc1ccc(Sc2ccccc2CN(C)[11CH3])c(N)c1 [[^11C]MADAM]    Not met
CN(C)Cc1ccccc1Sc1ccc(C[18F])cc1N [[^18F]AFM]    Not met
CN([11CH3])Cc1ccccc1Sc1ccc(CF)cc1N [[^11C]AFM]    Not met
CN([11CH3])Cc1ccccc1Sc1ccc(F)cc1N [[^11C]AFA]    Met
CN(C)Cc1ccccc1Sc1ccc([18F])cc1N [[^18F]AFA]    Not met

Asked: Does the reported % ID/g Blood of CN(C)Cc1ccccc1Sc1ccc(CC[18F])cc1N [[^18F]AFE] stay below 0.1 % ID/g?
Given back: Not met

Asked: Does this molecule meet the criterion % ID/g Blood < 0.1 % ID/g? CN(C)Cc1ccccc1Sc1ccc(CCF)cc1N [[^11C]AFE]
Given back: Met

* * *

- Assay explanation: In vitro logP measurement, octanol/phosphate buffer pH 7.4
- Assay type: physicochemical
- Condition set: octanol/phosphate buffer pH 7.4, radiolabeled compound, mean ± SD, n = 8
Reported property: logP
Give the figure only, with no unit attached.

// below: answered compounds
CSc1ccc(C2CN3CCCC3c3ccccc32)cc1 (single isomer, unassigned; (+)) [McN 5652]    2.51
CN(C)Cc1ccccc1Sc1ccc(Br)cc1N [DAPA]    3.06

Asked: Form field: reported logP of CN(C)Cc1ccccc1Sc1ccc(CF)cc1N [AFM]
Given back: 2.44

Asked: If you can, please state the reported logP value of CN(C)Cc1ccccc1Sc1ccc(I)cc1N [ADAM] .
Given back: 3.31

Asked: Form field: reported logP of CN(C)Cc1ccccc1Sc1ccc(C#N)cc1N [DASB]
Given back: 2.38

* * *

- Assay explanation: Biodistribution of labeled radioligands in male Sprague-Dawley rats
- Assay type: in vivo
- Condition set: 60 min post-injection; mean ± SD, n = 3
Output condition met for records whose % ID/g Blood is lower than 0.09 % ID/g, condition not met for records at or above 0.09 % ID/g.

CN([11CH3])Cc1ccccc1Sc1ccc(F)cc1N [[^11C]AFA]    condition met
CN([11CH3])Cc1ccccc1Sc1ccc(CF)cc1N [[^11C]AFM]    condition not met
CN(C)Cc1ccccc1Sc1ccc(CC[18F])cc1N [[^18F]AFE]    condition met
CN(C)Cc1ccccc1Sc1ccc(C[18F])cc1N [[^18F]AFM]    condition not met
Cc1ccc(Sc2ccccc2CN(C)[11CH3])c(N)c1 [[^11C]MADAM]    condition not met

Asked: Strictly below 0.09 % ID/g in % ID/g Blood? CN(C)Cc1ccccc1Sc1ccc(CCF)cc1N [[^11C]AFE]
Given back: condition met

* * *

- Test system: SERT
- Assay explanation: Baboon PET imaging: brain uptake, kinetic analysis and SERT parameters
- Format: in vivo
- Condition set: baboons, mean ± SD of four experiments
rule met if Regional uptake peak time Temporal Cortex is below 30 min. rule not met if not; exact matches included in rule not met.

CN(C)Cc1ccccc1Sc1ccc(Br)cc1N [[^11C]DAPA]    rule not met
CN([11CH3])Cc1ccccc1Sc1ccc(CF)cc1N [[^11C]AFM]    rule not met
CN(C)Cc1ccccc1Sc1ccc(I)cc1N [[^11C]ADAM]    rule not met
CN(C)Cc1ccccc1Sc1ccc(C#N)cc1N [[^11C]DASB]    rule met

From here, focus on the item given below.
Asked: Consider the compound [11CH3]Sc1ccc([C@H]2CN3CCC[C@H]3c3ccccc32)cc1 [[^11C]McN 5652] . Is its Regional uptake peak time Temporal Cortex strictly less than 30 min?
Given back: rule met

* * *

- Assay explanation: Biodistribution of labeled radioligands in male Sprague-Dawley rats
- Type: in vivo
- Condition set: 60 min post-injection; mean ± SD, n = 3
Reported property: % ID/g Hypothal.
A complete answer gives the number followed by the unit.

CN([11CH3])Cc1ccccc1Sc1ccc(CF)cc1N [[^11C]AFM]    1.27 ± 0.16 % ID/g
CN(C)Cc1ccccc1Sc1ccc(C[18F])cc1N [[^18F]AFM]    0.71 ± 0.14 % ID/g
CN(C)Cc1ccccc1Sc1ccc(CCF)cc1N [[^11C]AFE]    0.29 ± 0.03 % ID/g
Cc1ccc(Sc2ccccc2CN(C)[11CH3])c(N)c1 [[^11C]MADAM]    1.39 ± 0.28 % ID/g
CN(C)Cc1ccccc1Sc1ccc(CC[18F])cc1N [[^18F]AFE]    0.24 ± 0.04 % ID/g

Asked: // % ID/g Hypothal. lookup, key: CN(C)Cc1ccccc1Sc1ccc([18F])cc1N [[^18F]AFA]
Given back: 0.38 ± 0.03 % ID/g

Asked: Look at this compound and give its reported % ID/g Hypothal.. CN([11CH3])Cc1ccccc1Sc1ccc(F)cc1N [[^11C]AFA]
Given back: 0.42 ± 0.06 % ID/g

* * *

- System: SERT
- Assay explanation: Baboon PET imaging: brain uptake, kinetic analysis and SERT parameters
- Assay type: in vivo
- Condition set: last scan 90 minutes; baboons, mean ± SD of four experiments
- Method: PET imaging protocol: PET experiments (n=20) were performed at Columbia University. Two adult male baboons (baboon A and B) were studied twice with each of the 5 radioligands (4 experiments per radioligand). […] Experiments were performed according to protocols approved by the Columbia-Presbyterian Medical Center Institutional Animal Care and Use Committee. […] Vital signs were monitored every 10 minutes and the temperature was kept constant at 37° C. with heated water blankets. […]
Reported property: Regional activity wash-out: % decrease from peak to last scan, Hippocampus (%)
Respond numerically; units are % and should not be typed.

Sample answers from the record:
CN(C)Cc1ccccc1Sc1ccc(C#N)cc1N [[^11C]DASB]    46
CN([11CH3])Cc1ccccc1Sc1ccc(CF)cc1N [[^11C]AFM]    26
CN(C)Cc1ccccc1Sc1ccc(Br)cc1N [[^11C]DAPA]    4
CN(C)Cc1ccccc1Sc1ccc(I)cc1N [[^11C]ADAM]    15

// next entry
Asked: I'd like to know its Regional activity wash-out: % decrease from peak to last scan, Hippocampus. The molecule in question is [11CH3]Sc1ccc([C@H]2CN3CCC[C@H]3c3ccccc32)cc1 [[^11C]McN 5652]
Given back: 16
